# assay_text: limiting solubility in liquid-crystalline mixtures at 20° C.
# Type: physicochemical
# condition_info: 3010, 20° C.
Decide by Solubility (limiting): equal to or exceeding 2 mass % means Yes, less means No.

[[record]]
compound = "CCCCc1ccc(C(=O)Nc2cc(CCCC)c(O)c3c2C(=O)c2c(NC(=O)c4ccc(CCCC)cc4)cc(CCCC)c(OC(=O)c4ccc(CCCC)cc4)c2C3=O)cc1 [Compound 18]"
category_label = "No"

[[record]]
compound = "CCCCc1cc(NC(=O)C2CCC(CCCC)CC2)c2c(c1OC(=O)c1ccc(C3CCC(CCCC)CC3)cc1)C(=O)c1c(OC(=O)c3ccc(C4CCC(CCCC)CC4)cc3)c(CCCC)cc(NC(=O)C3CCC(CCCC)CC3)c1C2=O (centres unmarked) [Compound 10]"
category_label = "Yes"

[[record]]
compound = "CCCCCCC1CCC(c2ccc(C(=O)Nc3cc(CCCC)c(O)c4c3C(=O)c3c(NC(=O)c5ccc(C6CCC(CCCCCC)CC6)nc5Cl)cc(CCCC)c(OC(=O)c5ccc(C6CCC(CCCCCC)CC6)nc5Cl)c3C4=O)c(Cl)n2)CC1 (centres unmarked) [Compound 20]"
category_label = "No"

[[record]]
compound = "CCCCCC1CCC(c2ccc(C(=O)Nc3ccc(O)c4c3C(=O)c3c(NC(=O)c5ccc(C6CCC(CCCCC)CC6)cc5)cc(CCCC)c(O)c3C4=O)cc2)CC1 (centres unmarked) [Compound 28]"
category_label = "No"

[[record]]
compound = "CCCCCC1CCC(c2ccc(C(=O)Nc3cc(CCCC)c(O)c4c3C(=O)c3c(NC(=O)c5ccc(C6CCC(CCCCC)CC6)cc5)cc(CCCC)c(OC(=O)C5CCC(CCCC)CC5)c3C4=O)cc2)CC1 (centres unmarked) [Compound 21]"
category_label = "Yes"

[[record]]
compound = "CCCCc1cc(NC(=O)c2ccc(C3CCC(CCCC)CC3)cc2)c2c(c1OC(=O)CCC)C(=O)c1c(OC(=O)CCC)c(CCCC)cc(NC(=O)c3ccc(C4CCC(CCCC)CC4)cc3)c1C2=O (centres unmarked) [Compound 13]"
category_label = "No"

